test: Displacement of [3H]-DTG from sigma 2 receptor in Dunkin Hartley guinea pig membrane after 120 mins by liquid scintillation counting analysis […]; format: cell membranes, Cavia porcellus
// Ki lookup, one value per entry
# do not omit the unit; it follows the number

Worked examples follow.
- smiles entry: "O=C1CCc2ccc(OCCCCCN3CCOCC3)cc2N1Cc1ccccc1"
  measured result: "1810 nM"
- smiles entry: "O=C1CCc2cc(OCCCN3CCOCC3)ccc2N1CCc1ccccc1"
  measured result: "98.1 nM"
- smiles entry: "O=C1CCc2ccc(OCCCCCCN3CCOCC3)cc2N1Cc1ccccc1"
  measured result: "2000 nM"
- smiles entry: "CN(C)CCCOc1ccc2c(c1)N(Cc1ccccc1)C(=O)CC2"
  measured result: "205 nM"
- smiles entry: "O=C1CCc2ccc(OCCCCN3CCOCC3)cc2N1CCc1ccccc1"
  measured result: "1200 nM"

From here, focus on the item given below.
Recorded result, O=C1CCc2ccc(OCCCN3CCCCC3)cc2N1 , Ki: 288 nM

----------
In this section, each of the molecules is paired with its reported Ki.
assay: Displacement of [3H]-DTG from sigma 2 receptor in Dunkin Hartley guinea pig membrane after 120 mins by liquid scintillation counting analysis […]; assay type: cell membranes, Cavia porcellus
Numbers only here, please. The scale is nM.

O=C1CCc2ccc(OCCCN3CCOCC3)cc2N1CCc1ccccc1 has a reported Ki of 100

Notebook: CC1CCN(CCCOc2ccc3c(c2)N(C)C(=O)CC3)CC1 , Ki read as 311

For CC1CCN(CCCOc2ccc3c(c2)N(Cc2ccccc2)C(=O)CC3)CC1 the molecule record lists Ki as 319

Item: CC1CCN(CCCOc2ccc3c(c2)N(Cc2ccc(F)cc2)C(=O)CC3)CC1 | Ki: 960

----------
target: Sigma non-opioid intracellular receptor 1 (Cavia porcellus, UniProt Q60492); experiment: Displacement of [3H]-(+)-pentazocine from sigma 1 receptor in Dunkin Hartley guinea pig membrane after 180 mins by liquid scintillation counting analysis
Sequence (Q60492 whole entry): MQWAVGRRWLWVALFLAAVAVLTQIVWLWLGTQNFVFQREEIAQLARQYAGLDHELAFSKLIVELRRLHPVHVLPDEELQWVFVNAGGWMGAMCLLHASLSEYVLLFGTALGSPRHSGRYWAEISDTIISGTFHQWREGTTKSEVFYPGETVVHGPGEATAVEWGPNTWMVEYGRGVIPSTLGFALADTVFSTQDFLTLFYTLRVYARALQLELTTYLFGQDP
Quick list: pKi per entry.
# pKi = -log10(concentration in molar units)

- smiles entry: "CN1C(=O)CCc2ccc(OCCCN3CCCCC3)cc21"
  measured result: 7.46
- smiles entry: "CCN(CC)CCCOc1ccc2c(c1)N(Cc1ccccc1)C(=O)CC2"
  measured result: 7.40
- smiles entry: "O=C1CCc2cc(OCCCCCCN3CCOCC3)ccc2N1Cc1ccccc1"
  measured result: 6.07

The recorded pKi for entry Cc1cc(OCCN2CCOCC2)nn1-c1ccc2ccccc2c1 equals 7.98

Documented pKi of O=C1CCc2cc(OCCCCCN3CCOCC3)ccc2N1Cc1ccccc1 : 7.15

According to the records, this compound O=C1CCc2ccc(OCCCCN3CCOCC3)cc2N1Cc1ccccc1 displays pKi of 7.22

Record summary for O=C1CCc2cc(OCCCN3CCOCC3)ccc2N1Cc1ccccc1 : reported pKi = 6.10

Entry O=C1CCc2cc(OCCCCN3CCOCC3)ccc2N1Cc1ccccc1 ; pKi = 7.65

Entry O=C1CCc2ccc(OCCCN3CCOCC3)cc2N1CCc1ccccc1 , pKi reported as 7.67

----------
Here the recorded pKi is given for each entry.
target: Sigma non-opioid intracellular receptor 1 (Cavia porcellus); assay: Displacement of [3H]-(+)-pentazocine from sigma 1 receptor in Dunkin Hartley guinea pig membrane after 180 mins by liquid scintillation counting analysis
Note: pKi values are expressed as the negative base-10 logarithm of concentration in M.

- smiles entry: "Cc1ccc(CN2C(=O)CCc3ccc(OCCCN4CCCCC4)cc32)cc1"
  measured result: 8.77
- smiles entry: "O=C1CCc2ccc(OCCCCCN3CCOCC3)cc2N1Cc1ccccc1"
  measured result: 7.05
- smiles entry: "Cc1ccc(CN2C(=O)CCc3ccc(OCCCN4CCC(C)CC4)cc32)cc1"
  measured result: 8.83

Consider the record given below.
The molecule identified as CN1CCN(CCCOc2ccc3c(c2)N(Cc2ccccc2)C(=O)CC3)CC1 registered its pKi at 8.37

Origin of values: ChEMBL document CHEMBL3232762
